METRIC: intrinsic clearance, human liver microsomes (mL/min/kg)

The following molecules have reported results that may help.
N#Cc1cccc(-c2ccc(=O)n3c2[C@@H]2C[C@@H](CN(Cc4cccs4)C2)C3)c1	396
Cn1nc(C2CC2)c2[nH]c(-c3cccc(CN4CCOCC4)c3)nc21	18.8

(I) O=C(NC1CCCCCC1)c1ccc(-c2cnco2)cc1
(II) Cn1cc(-c2nc(C(=O)Nc3ccc4c(c3)OCCCO4)cs2)cn1
Data request: Lab log: flag the item ( I or II ) with the smaller intrinsic clearance, human liver microsomes figure. Bench note: the answer is the label of the chosen record.
Data returned: II

###

METRIC: intrinsic clearance, rat liver microsomes (mL/min/kg)

The following molecules have reported results that may help.
COc1ccc(-c2noc([C@@H]3CCCN3Cc3cccnc3)n2)cn1	1240
CC(C)(C)C(=O)Nc1nnc(Cc2ccccc2)s1	658
CCC(CC)NC(=O)c1ccc(C#N)c(C)n1	50
CC(C)NC(=O)N1CC[C@H](NC2=Nc3cc(F)ccc3N(CC(F)F)c3ccc(Cl)cc32)C1	783
O=C(Nc1cccc2ncccc12)[C@H]1CCCN(S(=O)(=O)c2cccs2)C1	614
Cc1nc([C@H]2CC[C@H](CNC(=O)CN3CCC(c4ccccc4)CC3)CC2)ccc1C(N)=O	390

(I) CO[C@H]1CC[C@@H](C(=O)c2ccc3nc4c(cc3c2)CCCO4)CC1
(II) CN1CC[C@@H](c2c(O)cc(O)c3c(=O)cc(-c4ccccc4Cl)oc23)[C@@H]1CO
Data request: Exercise: compare I and II ; which one has the greater intrinsic clearance, rat liver microsomes? Bench note: the answer is the label of the chosen record.
Data returned: I
(I: 552 mL/min/kg, II: 142 mL/min/kg)
